System: bovine tubulin
Test: In vitro tubulin polymerization assay (turbidity at 340 nm)
Assay type: biochemical
Settings: 10 μM compound, 30 minute data point, vs 1% DMSO control
RECORDED METRIC: Tubulin Assay: percent inhibition at 10 μM based on 30 minute data (%)

[[record]]
molecule = "Nc1ccccc1-c1nnc(Nc2ccc3c(c2)OCCO3)o1 [Compound 241]"
numeric_readout = 75

[[record]]
molecule = "Brc1ccc(-c2nnc(-c3ccccc3NCc3ccc4[nH]cnc4c3)[nH]2)cc1 [Compound 147]"
numeric_readout = 43

[[record]]
molecule = "COc1cc(CNc2ncccc2-c2nnc(Nc3cccc(F)c3)o2)cc(OC)c1 [Compound 184]"
numeric_readout = 23

[[record]]
molecule = "COc1ccc(OC)c(Nc2nnc(-c3cccnc3NCc3ccc4c(c3)OCO4)[nH]2)c1 [Compound 14]"
numeric_readout = 24


====

Tested on: bovine tubulin
Test: In vitro tubulin polymerization assay (turbidity at 340 nm)
Type: biochemical
Details: 10 μM compound, 30 minute data point, vs 1% DMSO control
Classes (Tubulin Assay: percent inhibition at 10 μM based on 30 minute data): bottom range (below 30%), center range (30% to below 80%), top range (80% or more)

[[record]]
compound = "COc1cccc(Nc2nnc(-c3cccnc3NCc3ccc4c(c3)OCCO4)[nH]2)c1 [Compound 35]"
category_label = "center range"

[[record]]
compound = "COc1cc(OC)cc(-c2nnc(-c3cccnc3NCc3cccnc3)[nH]2)c1 [Compound 87]"
category_label = "top range"

[[record]]
compound = "c1cnc(OCc2ccc3c(c2)OCO3)c(-c2nnc(Nc3ccc4c(c3)OCO4)[nH]2)c1 [Compound 72]"
category_label = "top range"

[[record]]
compound = "FC(F)(F)Oc1cccc(-c2nnc(-c3ccccc3NCc3ccc4c(c3)OCCO4)[nH]2)c1 [Compound 142]"
category_label = "bottom range"

[[record]]
compound = "CN(C)c1ccc(-c2nnc(Nc3ccc4c(c3)OCCO4)o2)c(NCc2ccc(F)c(F)c2)c1 [Compound 233]"
category_label = "center range"

[[record]]
compound = "COc1ccc(-c2nnc(-c3cccnc3NCc3cccnc3)[nH]2)cc1OC [Compound 88]"
category_label = "bottom range"

[[record]]
compound = "CN(C)c1ccc(Nc2nnc(-c3ccccc3NCc3ccc(F)c(F)c3)[nH]2)cc1 [Compound 121]"
category_label = "bottom range"

[[record]]
compound = "c1ccc(-c2nnc(Nc3ccc4c(c3)OCCO4)[nH]2)c(NCc2ccncc2)c1 [Compound 122]"
category_label = "top range"

[[record]]
compound = "C#Cc1ccc(-c2nnc(-c3ccccc3NCc3ccncc3)[nH]2)cc1 [Compound 131]"
category_label = "center range"

[[record]]
compound = "c1cncc(CCNc2ncccc2-c2nnc(Nc3ccc4c(c3)OCCO4)o2)c1 [Compound 201]"
category_label = "bottom range"

[[record]]
compound = "CS(=O)(=O)c1ccc(-c2nnc(-c3cccnc3NCCc3c[nH]cn3)[nH]2)cc1 [Compound 91]"
category_label = "bottom range"

[[record]]
compound = "COc1cc(Nc2ncccc2-c2nnc(-c3ccc(S(C)(=O)=O)cc3)[nH]2)cc(OC)c1 [Compound 74]"
category_label = "top range"

[[record]]
compound = "CS(=O)(=O)c1ccc(-c2nnc(-c3cccnc3NCc3ccc4c(c3)OCCO4)[nH]2)cc1 [Compound 105]"
category_label = "top range"

[[record]]
compound = "COc1ccc(Nc2nnc(-c3ccccc3NCc3ccncc3)[nH]2)c(OC)c1 [Compound 114]"
category_label = "bottom range"

[[record]]
compound = "FC(F)(F)c1cccc(-c2nnc(-c3cccnc3NCc3ccc4c(c3)OCO4)[nH]2)c1 [Compound 83]"
category_label = "bottom range"

[[record]]
compound = "COc1cccc(CNc2ncccc2-c2nnc(Nc3ccc4c(c3)OCCO4)o2)c1 [Compound 159]"
category_label = "top range"

[[record]]
compound = "COc1ccc(Nc2nnc(-c3cccnc3NCc3ccc4c(c3)OCO4)o2)cc1OC [Compound 180]"
category_label = "center range"


====

System: A431, human epidermoid carcinoma cells
Assay: Cell cycle analysis (FACS), mitotic arrest in G2/M
Format: cell-based
Conditions: Homo sapiens, A-431, 24 h, read-out: FACS Assay: concentration required to achieve inhibition in FACS assay
Outcome: true for minimal effective concentration of at least 1 µM; false for anything lower.

[[record]]
molecule_smiles = "COc1cc(Nc2ncccc2-c2nnc(Nc3ccc4c(c3)OCO4)[nH]2)cc(OC)c1"
category_label = "false"

[[record]]
molecule_smiles = "COc1cc(Nc2ncccc2-c2nnc(Nc3cc(OC)ccc3OC)[nH]2)cc(OC)c1"
category_label = "true"

[[record]]
molecule_smiles = "Fc1ccc(CNc2ncccc2-c2nnc(Nc3ccc4c(c3)OCO4)o2)cc1"
category_label = "false"

[[record]]
molecule_smiles = "c1cncc(CNc2ccccc2-c2nnc(Nc3ccc4c(c3)OCCO4)o2)c1"
category_label = "false"

[[record]]
molecule_smiles = "C#Cc1ccc(-c2nnc(-c3ccccc3NCc3ccncc3)[nH]2)cc1"
category_label = "false"

[[record]]
molecule_smiles = "COc1cc(CNc2ncccc2-c2nnc(Nc3ccc(OC)c(OC)c3)o2)cc(OC)c1"
category_label = "false"

[[record]]
molecule_smiles = "CS(=O)(=O)c1ccc(-c2nnc(-c3cccnc3NCc3ccc(F)cc3)[nH]2)cc1"
category_label = "false"

[[record]]
molecule_smiles = "CN(C)c1ccc(Nc2nnc(-c3cccnc3NCc3ccc4c(c3)OCO4)[nH]2)cc1"
category_label = "true"

[[record]]
molecule_smiles = "c1ccc(-c2nnc(Nc3ccc4c(c3)OCCO4)o2)c(NCc2ccncc2)c1"
category_label = "false"

[[record]]
molecule_smiles = "COc1cc(Nc2nnc(-c3cccnc3Nc3cc(OC)cc(OC)c3)[nH]2)cc(OC)c1"
category_label = "false"

[[record]]
molecule_smiles = "COc1ccc(OC)c(Nc2nnc(-c3cccnc3Nc3ccc4cn[nH]c4c3)[nH]2)c1"
category_label = "true"

[[record]]
molecule_smiles = "CN(C)c1ccc(Nc2nnc(-c3cccnc3Nc3ccc4c(c3)OCO4)[nH]2)cc1"
category_label = "true"

[[record]]
molecule_smiles = "COc1ccc(Nc2nnc(-c3cccnc3Nc3cc(OC)cc(OC)c3)[nH]2)cc1"
category_label = "true"

[[record]]
molecule_smiles = "COc1ccc(-c2nnc(-c3cccnc3NCc3cccnc3)[nH]2)cc1OC"
category_label = "true"

[[record]]
molecule_smiles = "COc1cccc(-c2nnc(-c3ccccc3NCc3ccc4[nH]ncc4c3)[nH]2)c1"
category_label = "true"

[[record]]
molecule_smiles = "COc1cccc(CNc2ncccc2-c2nnc(Nc3ccc4c(c3)OCCO4)o2)c1"
category_label = "false"

[[record]]
molecule_smiles = "COc1cc(Nc2ncccc2-c2nnc(Nc3ccc(C#N)cc3)[nH]2)cc(OC)c1"
category_label = "true"

[[record]]
molecule_smiles = "CN(C)c1ccc(Nc2nnc(-c3cccnc3Nc3ccc4cn[nH]c4c3)[nH]2)cc1"
category_label = "true"


====

System: bovine tubulin
Test: In vitro tubulin polymerization assay (turbidity at 340 nm)
Assay type: biochemical
Conditions: 10 μM compound, 30 minute data point, vs 1% DMSO control
RECORDED METRIC: Tubulin Assay: percent inhibition at 10 μM based on 30 minute data (%)

[[record]]
compound = "COc1cc(Nc2nnc(-c3cccnc3NCc3ccco3)o2)cc(OC)c1OC"
measured_target = "bovine tubulin"
result_unit = "%"
numeric_readout = 66

[[record]]
compound = "COc1ccc(Nc2nnc(-c3cccnc3Nc3ccc4c(c3)OCO4)[nH]2)cc1"
measured_target = "bovine tubulin"
result_unit = "%"
numeric_readout = 100

[[record]]
compound = "c1cncc(CNc2ccccc2-c2cnc(Nc3ccc4c(c3)OCCO4)o2)c1"
measured_target = "bovine tubulin"
result_unit = "%"
numeric_readout = 79

[[record]]
compound = "COc1cccc(S(=O)(=O)Nc2ccccc2-c2nnc(Nc3ccc4c(c3)OCO4)o2)c1"
measured_target = "bovine tubulin"
result_unit = "%"
numeric_readout = 99

[[record]]
compound = "c1ccc(-c2nnc(Nc3ccc4c(c3)OCCO4)o2)c(NCc2ccc3c(c2)OCO3)c1"
measured_target = "bovine tubulin"
result_unit = "%"
numeric_readout = 74

[[record]]
compound = "O=[N+]([O-])c1ccccc1-c1nnc(Nc2ccc3c(c2)OCCO3)[nH]1 [Compound 127a]"
measured_target = "bovine tubulin"
result_unit = "%"
numeric_readout = 22

[[record]]
compound = "COc1cc(Nc2nnc(-c3cccnc3NCc3ccc(F)c(F)c3)o2)cc(OC)c1OC"
measured_target = "bovine tubulin"
result_unit = "%"
numeric_readout = 99

[[record]]
compound = "c1ccc(-c2nnc(Nc3ccc4c(c3)OCCO4)o2)c(NCc2ncc[nH]2)c1"
measured_target = "bovine tubulin"
result_unit = "%"
numeric_readout = 79


====

System: A431, human epidermoid carcinoma cells
Assay: Cell cycle analysis (FACS), mitotic arrest in G2/M
Type: cell-based
Conditions: Homo sapiens, A-431, 24 h, read-out: FACS Assay: concentration required to achieve inhibition in FACS assay
RECORDED METRIC: minimal effective concentration (µM)

[[record]]
compound = "CS(=O)(=O)c1ccc(-c2nnc(-c3cccnc3NCc3ccc(F)c(F)c3)[nH]2)cc1"
recorded_metric = "minimal effective concentration"
numeric_readout = 0.1

[[record]]
compound = "COc1cccc(Nc2nnc(-c3cccnc3Nc3cc(OC)cc(OC)c3)o2)c1"
recorded_metric = "minimal effective concentration"
numeric_readout = 10

[[record]]
compound = "c1ccc(-c2nnc(Nc3ccc4c(c3)OCO4)o2)c(NCc2cn[nH]c2)c1"
recorded_metric = "minimal effective concentration"
numeric_readout = 1

[[record]]
compound = "c1cnc(NCC2CCCO2)c(-c2nnc(Nc3ccc4c(c3)OCCO4)o2)c1 (centres unmarked)"
recorded_metric = "minimal effective concentration"
numeric_readout = 0.1

[[record]]
compound = "c1cnc(NCc2ccc3c(c2)CCO3)c(-c2nnc(Nc3ccc4c(c3)OCCO4)o2)c1"
recorded_metric = "minimal effective concentration"
numeric_readout = 0.1

[[record]]
compound = "FC(F)(F)Oc1cccc(-c2nnc(-c3ccccc3NCc3ccc4c(c3)OCO4)[nH]2)c1"
recorded_metric = "minimal effective concentration"
numeric_readout = 0.1

[[record]]
compound = "COc1ccc(CNc2ncccc2-c2nnc(Nc3ccc4c(c3)OCO4)o2)cc1"
recorded_metric = "minimal effective concentration"
numeric_readout = 1

[[record]]
compound = "COc1ccc(CNc2ncccc2-c2nnc(Nc3ccc4c(c3)OCCO4)o2)cc1OC"
recorded_metric = "minimal effective concentration"
numeric_readout = 0.1

[[record]]
compound = "COc1cccc(Nc2nnc(-c3cccnc3OCc3ccc4c(c3)OCO4)[nH]2)c1"
recorded_metric = "minimal effective concentration"
numeric_readout = 1

[[record]]
compound = "COc1cc(Nc2nnc(-c3cccnc3NCc3ccco3)o2)cc(OC)c1OC"
recorded_metric = "minimal effective concentration"
numeric_readout = 1

[[record]]
compound = "c1coc(CNc2ncccc2-c2nnc(Nc3ccc4c(c3)OCO4)[nH]2)c1"
recorded_metric = "minimal effective concentration"
numeric_readout = 1

[[record]]
compound = "COc1cc(Nc2ncccc2-c2nnc(-c3ccc(S(C)(=O)=O)cc3)[nH]2)cc(OC)c1"
recorded_metric = "minimal effective concentration"
numeric_readout = 0.1

[[record]]
compound = "COc1ccc(CNc2nnc(-c3cccnc3Nc3cc(OC)cc(OC)c3)[nH]2)cc1"
recorded_metric = "minimal effective concentration"
numeric_readout = 1

[[record]]
compound = "O=C1CCCN1CCCNc1ncccc1-c1nnc(Nc2ccc3c(c2)OCCO3)o1"
recorded_metric = "minimal effective concentration"
numeric_readout = 0.1

[[record]]
compound = "COc1cccc(Nc2nnc(-c3cccnc3NCc3ccco3)[nH]2)c1"
recorded_metric = "minimal effective concentration"
numeric_readout = 10

[[record]]
compound = "COc1cccc(Nc2nnc(-c3ccccc3NCc3ccncc3)o2)c1"
recorded_metric = "minimal effective concentration"
numeric_readout = 10

[[record]]
compound = "c1cnc(OCc2ccc3c(c2)OCO3)c(-c2nnc(Nc3ccc4c(c3)OCO4)[nH]2)c1"
recorded_metric = "minimal effective concentration"
numeric_readout = 0.1

